tested on: 324938-238-R-J1-PDC complex spheroid growth, % test/control; test: Anticancer human tumor 324938-238-R-J1-PDC patient-derived bladder carcinoma cell line growth inhibition [AhR]; conditions: curve of first compound; second compound 0.316 µM
pIC50: −log10 of the molar value.
OUTCOME MEASURE: pIC50

Completed entries (count: 2):
| COMPOUND | pIC50 |
| --- | --- |
| O=C(C=Cc1cccc(S(=O)(=O)Nc2ccccc2)c1)NO + Cc1cncc(-c2nc(NCCc3c[nH]c4ccccc34)c3ncn(C(C)C)c3n2)c1 | 5.44 |
| Cn1ncnc1C1c2n[nH]c(=O)c3cc(F)cc(c23)NC1c1ccc(F)cc1 (configuration not stated) + CC(CO)NC(=O)c1cc(-c2ccc(Cl)cc2)nn(-c2cnn(C)c2)c1=O | 7.04 |

a. O=C(C=Cc1cccc(S(=O)(=O)Nc2ccccc2)c1)NO + Cc1ccccc1N=Nc1ccc(NC(=O)c2ccnn2C)c(C)c1
b. COc1cc(Nc2ncc3c(n2)-c2ccc(Cl)cc2C(c2c(F)cccc2OC)=NC3)ccc1C(=O)O + Cc1ccccc1N=Nc1ccc(NC(=O)c2ccnn2C)c(C)c1
c. O=C(C=Cn1cnc(-c2cc(C(F)(F)F)cc(C(F)(F)F)c2)n1)NNc1cnccn1 + Cc1ccccc1N=Nc1ccc(NC(=O)c2ccnn2C)c(C)c1
Parameters: sort_field (pIC50), sort_dir (desc). Show the ranking through the labels, in the order asked for. b, c, a
(b: 7.00, c: 6.77, a: 5.55)

###

tested on: 324938-238-R-J1-PDC complex spheroid growth, % test/control; assay: Anticancer human tumor 324938-238-R-J1-PDC cell line growth inhibition [AhR]; conditions: second compound 0.1 µM; first compound 3.16 µM; stronger effect = lower value;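 also: spheroids exposed to agents for seven days before viability read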
OUTCOME MEASURE: viability, T/C (%)
API: value field is a number in %; no unit string.

Solved entries (count: 2):
| COMPOUND | OUTCOME MEASURE | READOUT VALUE |
| --- | --- | --- |
| O=C(c1cc(Cc2n[nH]c(=O)c3ccccc23)ccc1F)N1CCN(C(=O)C2CC2)CC1 + CC(CO)NC(=O)c1cc(-c2ccc(Cl)cc2)nn(-c2cnn(C)c2)c1=O | viability, T/C | 66.9 |
| CC(C)c1c(-c2ccccc2)nc2c(C#N)c[nH]n2c1=O + CC(CO)NC(=O)c1cc(-c2ccc(Cl)cc2)nn(-c2cnn(C)c2)c1=O | viability, T/C | 92.5 |

// next entry
viability, T/C measured on COc1cccc2c1C(=O)c1c(O)c3c(c(O)c1C2=O)CC(O)(C(=O)CO)CC3OC1CC(N)C(O)C(C)O1 (stereo not drawn) + Cc1ccccc1N=Nc1ccc(NC(=O)c2ccnn2C)c(C)c1 = 0.1

###

test system: 324938-238-R-J1-PDC complex spheroid growth, % test/control; experiment: Anticancer human tumor 324938-238-R-J1-PDC cell line growth inhibition [AhR]; settings: curve of first compound; second compound 0.316 µM;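 also: spheroids exposed to agents for seven days before viability read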
pIC50: −log10 of the molar value.
OUTCOME MEASURE: pIC50

a. NS(=O)(=O)OCC1CC(n2ccc3c(NC4CCc5ccccc54)ncnc32)CC1O (stereo not drawn) + Cc1cncc(-c2nc(NCCc3c[nH]c4ccccc34)c3ncn(C(C)C)c3n2)c1
b. Nc1ccccc1NC(=O)c1ccc(CNC(=O)OCc2cccnc2)cc1 + Cc1cncc(-c2nc(NCCc3c[nH]c4ccccc34)c3ncn(C(C)C)c3n2)c1
Between item a and item b , which reported pIC50 is smaller? Pick one; state its label. b

###

test system: 324938-238-R-J1-PDC complex spheroid growth, % test/control; assay: Anticancer human tumor 324938-238-R-J1-PDC cell line growth inhibition [AhR]; conditions: second compound 10 µM; first compound 0.949 µM; stronger effect = lower value;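 also: spheroids exposed to agents for seven days before viability read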
This section presents compounds with their documented viability, T/C values.
State the answer as a number, implicitly in %.

| COMPOUND | viability, T/C (%) |
| --- | --- |
| O=C(C=Cn1cnc(-c2cc(C(F)(F)F)cc(C(F)(F)F)c2)n1)NNc1cnccn1 + CC(CO)NC(=O)c1cc(-c2ccc(Cl)cc2)nn(-c2cnn(C)c2)c1=O | 24.8 |
| CCN(c1cc(-c2ccc(CN3CCOCC3)cc2)cc(C(=O)NCc2c(C)cc(C)[nH]c2=O)c1C)C1CCOCC1 + CC(CO)NC(=O)c1cc(-c2ccc(Cl)cc2)nn(-c2cnn(C)c2)c1=O | 66.3 |

For CCN(c1cc(-c2ccc(CN3CCOCC3)cc2)cc(C(=O)NCc2c(C)cc(C)[nH]c2=O)c1C)C1CCOCC1 + Cc1ccccc1N=Nc1ccc(NC(=O)c2ccnn2C)c(C)c1 the compound record lists viability, T/C as 77.5

For this compound ( O=C(C=Cn1cnc(-c2cc(C(F)(F)F)cc(C(F)(F)F)c2)n1)NNc1cnccn1 + Cc1cncc(-c2nc(NCCc3c[nH]c4ccccc34)c3ncn(C(C)C)c3n2)c1 ), measured viability, T/C is 22.1

The value of viability, T/C measured for the compound CCN(c1cc(-c2ccc(CN3CCOCC3)cc2)cc(C(=O)NCc2c(C)cc(C)[nH]c2=O)c1C)C1CCOCC1 + Cc1cncc(-c2nc(NCCc3c[nH]c4ccccc34)c3ncn(C(C)C)c3n2)c1 turned out to be 8.72

Value of measured viability, T/C for the entry O=C(C=Cn1cnc(-c2cc(C(F)(F)F)cc(C(F)(F)F)c2)n1)NNc1cnccn1 + Cc1ccccc1N=Nc1ccc(NC(=O)c2ccnn2C)c(C)c1 : 26.7

###

// reported viability, T/C per item
test system: 324938-238-R-J1-PDC complex spheroid growth, % test/control; experiment: Anticancer human tumor 324938-238-R-J1-PDC cell line growth inhibition [AhR]; details: second compound 0.316 µM; first compound 0.001 µM; stronger effect = lower value;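 also: spheroids exposed to agents for seven days before viability read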
Only the number, expressed in %, is required.

Example results:
| MOLECULE | UNITS TEXT | viability, T/C |
| --- | --- | --- |
| Cn1ncnc1C1c2n[nH]c(=O)c3cc(F)cc(c23)NC1c1ccc(F)cc1 (stereo unspecified) + Cc1ccccc1N=Nc1ccc(NC(=O)c2ccnn2C)c(C)c1 | % | 100 |
| CC[C@@]1(O)C(=O)OCc2c1cc1n(c2=O)Cc2cc3c(CN(C)C)c(O)ccc3nc2-1 + Cc1ccccc1N=Nc1ccc(NC(=O)c2ccnn2C)c(C)c1 | % | 101 |
| Cn1ncnc1C1c2n[nH]c(=O)c3cc(F)cc(c23)NC1c1ccc(F)cc1 (stereo unspecified) + Cc1cncc(-c2nc(NCCc3c[nH]c4ccccc34)c3ncn(C(C)C)c3n2)c1 | % | 113 |
| CC[C@@]1(O)C(=O)OCc2c1cc1n(c2=O)Cc2cc3c(CN(C)C)c(O)ccc3nc2-1 + Cc1cncc(-c2nc(NCCc3c[nH]c4ccccc34)c3ncn(C(C)C)c3n2)c1 | % | 91.9 |
| Cn1ncnc1C1c2n[nH]c(=O)c3cc(F)cc(c23)NC1c1ccc(F)cc1 (stereo unspecified) + CC(CO)NC(=O)c1cc(-c2ccc(Cl)cc2)nn(-c2cnn(C)c2)c1=O | % | 92.8 |

// switching to the query molecule
viability, T/C value, target or system 324938-238-R-J1-PDC complex spheroid growth, % test/control, for CC[C@@]1(O)C(=O)OCc2c1cc1n(c2=O)Cc2cc3c(CN(C)C)c(O)ccc3nc2-1 + CC(CO)NC(=O)c1cc(-c2ccc(Cl)cc2)nn(-c2cnn(C)c2)c1=O : 106

###

Consider the following compounds and their measured viability, T/C readings.
test system: 324938-238-R-J1-PDC complex spheroid growth, % test/control; experiment: Anticancer human tumor 324938-238-R-J1-PDC cell line growth inhibition [AhR]; details: second compound 1 µM; first compound 0.3 µM; stronger effect = lower value;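 also: spheroids exposed to agents for seven days before viability read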
Expressed in %, but write only the number.

| COMPOUND | SYSTEM UNDER TEST | UNITS TEXT | viability, T/C |
| --- | --- | --- | --- |
| CCN(c1cc(-c2ccc(CN3CCOCC3)cc2)cc(C(=O)NCc2c(C)cc(C)[nH]c2=O)c1C)C1CCOCC1 + Cc1ccccc1N=Nc1ccc(NC(=O)c2ccnn2C)c(C)c1 | 324938-238-R-J1-PDC complex spheroid growth, % test/control | % | 90 |
| O=C(C=Cn1cnc(-c2cc(C(F)(F)F)cc(C(F)(F)F)c2)n1)NNc1cnccn1 + Cc1ccccc1N=Nc1ccc(NC(=O)c2ccnn2C)c(C)c1 | 324938-238-R-J1-PDC complex spheroid growth, % test/control | % | 37.1 |
| CC(C)CC(NC(=O)C(Cc1ccccc1)NC(=O)c1cnccn1)B(O)O (configuration not stated) + Cc1ccccc1N=Nc1ccc(NC(=O)c2ccnn2C)c(C)c1 | 324938-238-R-J1-PDC complex spheroid growth, % test/control | % | 0.17 |
| Nc1ncn(C2CC(O)C(CO)S2)c(=O)n1 (configuration not stated) + Cc1cncc(-c2nc(NCCc3c[nH]c4ccccc34)c3ncn(C(C)C)c3n2)c1 | 324938-238-R-J1-PDC complex spheroid growth, % test/control | % | 126 |

// next item, viability, T/C requested
Item Nc1ncn(C2CC(O)C(CO)S2)c(=O)n1 (configuration not stated) + CC(CO)NC(=O)c1cc(-c2ccc(Cl)cc2)nn(-c2cnn(C)c2)c1=O was tested on 324938-238-R-J1-PDC complex spheroid growth, % test/control; the reported viability, T/C is 54.2
